# EXPERIMENTAL_PROTOCOL: endothelial E-selectin expression blockers – imaging, HUVEC, immunofluorescence, MLSMR starter and 10KST1 sets, primary screen (AID 487);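 note: signal is fraction of cell area covered by stained E-selectin grains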
# STATED_CONDITIONS: HUVEC TNFalpha-induced E-selectin immunofluorescence imaging, at 2 µM; active compounds read high
QUANTITY: inhibition (%)
Return type: number; implicit unit %.

COMPOUND	inhibition [%]
Cc1cc(NS(=O)(=O)c2ccc(NC(=O)COc3ccc(Cl)cc3)cc2)no1	-54.3
CN(C)C(=O)CSc1nnc([C@H](Cc2c[nH]c3ccccc23)NC(=O)OC(C)(C)C)o1	-35.8
COc1cc(CNc2ccc(N3CCOCC3)c(C(=O)O)c2)ccc1OCC(N)=O	26.6
CCOC(=O)CSc1nc2cc(C(=O)NCc3ccco3)ccc2c(=O)n1C1CCCCC1	10
Nc1nc2sc3c(c2c(=O)s1)CCCC3	18.8
O=C(CSc1nc2cc(S(=O)(=O)N3CCOCC3)ccc2o1)NC1CCCc2ccccc21 (configuration not stated)	36.5

Can you look up the measured inhibition of `CC(C)(C)n1nnnc1CN(Cc1ccco1)Cc1cc2cc3c(cc2[nH]c1=O)OCO3` for me?
-53.9

Which inhibition value is on record for `Cc1cc(=O)oc2ccc(OCC(=O)N(Cc3ccc(F)cc3)Cc3ccco3)cc12` ?
-150

What inhibition value was documented for this compound, `C=C(C)COc1ccc(-c2nc(N)ncc2-c2ccc(OC)cc2)c(O)c1` ?
-120

For the compound `COc1ccc(/C=N/n2cnnc2SCc2ccc(OC)cc2)cc1` , what inhibition is on record?
-27.7

Dear colleague, I am looking for the recorded inhibition of the following compound: `Cc1ccc(-n2c3c(cc(C(=O)O)c2=O)C(=O)CC(C)(C)C3)cc1`
3.1

What value of inhibition has been reported for the following compound? `CCOc1ccc2nc(Nc3nc4c(c(=O)[nH]3)CCC4)nc(C)c2c1`
-9.2

Please give the measured inhibition for this compound: Cc1cc(N2C(=O)C3C4C=CC(C4)C3C2=O)ccc1Br (configuration not stated)
98.6

Given the compound CC1Cc2nc(SCC(=O)N3CCCc4ccccc43)n(C)c(=O)c2S1 (configuration not stated) , what is its reported inhibition?
5.3

Can you look up the measured inhibition of `Cc1ccc(CS(=O)(=O)Cc2ccc(C(=O)NCc3ccccn3)o2)cc1` for me?
8.5

* * *

# EXPERIMENTAL_PROTOCOL: TLR3 IRF3 reporter activation blockers – cell-based, poly I:C stimulus, luciferase, 10K MLSCN set, primary screen (AID 602277)
# STATED_CONDITIONS: HEK293-TLR3 RL24 IRF3 luciferase reporter, at 10 µM, active compounds read high
// reported inhibition per item
Kindly provide the numeric value in % only, without the unit symbol.

// known answers, use as guide
COMPOUND	inhibition / %
CCOc1ccc(N(CC(=O)NC2CCCC(C)C2C)S(=O)(=O)c2c(C)noc2C)cc1 (stereo not given)	38.3
Cn1c(SCc2ccccc2)nnc1C1CCCNC1 (stereo not given)	15.2
CC(C)[C@H](NC(=O)NCc1ccc(Cl)cc1)C(=O)O	19.3
Cc1nnc(NC(=O)C2CCCO2)s1 (stereo not given)	6.47
Cc1nc2ccc(F)cc2cc1C(=O)NCC1CCCO1 (stereo not given)	27.4

Field request: inhibition | item: `Cc1nc(C)c(C(=O)OCC(=O)N2CCN(c3ccccc3)CC2)s1`
5.6

Quick one: inhibition for CC1CCCN(C(=O)CN2CCN(C(=O)c3ccco3)CC2)C1 (stereo not given) ?
14.7

Entry `CCNc1ccc2c(Cl)cc(=O)oc2c1` has what inhibition?
-1.88

Quick one: inhibition of CCC1CCCCN1CCCNC(=O)c1ccc(CS(=O)(=O)Cc2ccccc2F)o1 (stereo not given) ?
20.5

Please report the recorded inhibition for CC(NC(=O)c1ccc2c(c1)OCO2)C(c1cccs1)N1CCOCC1 (stereo not given) .
15.4

Look up inhibition for this compound: CCC1(C)Cc2c(sc3nc(SCC(=O)O)[nH]c(=O)c23)CO1 (stereo not given)
7.26

Quick one: inhibition for `O=C1c2ccccc2C(=O)N1c1cccc(-c2nc3ccccc3o2)c1` ?
4.23

Need inhibition, item `CCN(CC(=O)Nc1ccc2c(c1)OCCO2)Cc1cc(=O)oc2cc(C)c(C)cc12`
16.9

Can you share its inhibition? I mean this compound: `O=C(Nc1cc(C(F)(F)F)ccc1Cl)C1CCN(c2nnc(-n3cccc3)s2)CC1`
9.28

* * *

# EXPERIMENTAL_PROTOCOL: inhibitors of TNFa-induced NFkB p65 translocation, primary screen, imaging, HUVEC, MLSMR starter and 10KST1 sets (AID 438);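 note: compound added about 3h40 before a 20 min TNFalpha stimulation; signal is the nuclear over cytoplasmic p65 intensity ratio per well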
# STATED_CONDITIONS: HUVEC TNFa-induced p65 nuclear translocation; at 2 µM, active compounds read high, 0% TNFa-plus-vehicle, 100% no-TNFa wells
Activity calls are given as the source filed them.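 The calls were made as follows: active = inhibition above 20% together with a positive visual image hit; inconclusive = visual image hit but inhibition not above 20%; inactive = no visual image hit.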
Reported values of inhibition for individual entries

Example results:
COMPOUND	inhibition
CC(NS(=O)(=O)c1ccc(OCC(=O)N2CCOCC2)c(Cl)c1)c1ccccc1 (configuration not stated)	-6.5% (inactive)
COc1ccc(S(=O)(=O)Nc2ccc(S(=O)(=O)N3CCCCC3)cc2)cc1OC	-4.8% (inactive)
CCc1nnc(NC(=O)CCC(=O)Nc2ccccc2)s1	7.2% (inactive)
CC1CCN(c2oc(-c3cccc4ccccc34)nc2C#N)CC1	-8.2% (inactive)
Cc1[nH]c(=O)[nH]c(=O)c1S(=O)(=O)N(C)Cc1ccccc1	1.1% (inactive)
N#Cc1c(-c2ccccc2)nc(SCc2nc(N)nc(N3CCCCC3)n2)[nH]c1=O	-14% (inactive)

Requested field: inhibition. Item: `O=C(c1cccnc1)N1CCN(C(=O)c2ccccc2F)CC1`
1% (inactive)

Report inhibition for `O=C(Nc1cc(C(=O)N2CCCC2)ccc1N1CCCC1)c1ccccc1F` please.
2% (inactive)

* * *

# TARGET_SYSTEM: Voltage-gated potassium channel subunit beta-2 (Rattus norvegicus) (UniProt P62483)
# Sequence (P62483 whole entry, looked up): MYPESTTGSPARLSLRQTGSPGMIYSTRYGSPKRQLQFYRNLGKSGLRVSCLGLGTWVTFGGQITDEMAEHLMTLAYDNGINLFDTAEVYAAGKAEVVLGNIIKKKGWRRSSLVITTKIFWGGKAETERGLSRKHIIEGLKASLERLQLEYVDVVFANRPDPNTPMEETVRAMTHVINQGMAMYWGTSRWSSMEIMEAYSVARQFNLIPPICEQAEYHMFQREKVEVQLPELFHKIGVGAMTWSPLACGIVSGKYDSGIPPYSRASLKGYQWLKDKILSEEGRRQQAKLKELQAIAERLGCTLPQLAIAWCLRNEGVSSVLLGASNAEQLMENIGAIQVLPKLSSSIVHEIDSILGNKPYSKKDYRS
# EXPERIMENTAL_PROTOCOL: enhancers of rat Kvbeta2 NADPH turnover – biochemical, NADPH fluorescence, primary screen (AID 623);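 note: fluorescence intensity change per second fitted from 20 to 320 s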
# STATED_CONDITIONS: Recombinant KvBeta, NADPH fluorescence decrease slope, 10 min; at 10 µM; active compounds read low
QUANTITY: NADPH fluorescence slope
Give the figure only, with no unit attached.

Recorded NADPH fluorescence slope, per entry:
COMPOUND	TARGET_SYSTEM	QUANTITY	RECORDED_RESULT
COc1cc(S(=O)(=O)NC2CCCCC2C)ccc1Cl (stereo unspecified)	Voltage-gated potassium channel subunit beta-2 (Rattus norvegicus) (UniProt P62483)	NADPH fluorescence slope	2.4e-05
CC(=O)NC1=NC(=O)/C(=C/N2CCCCC2)S1	Voltage-gated potassium channel subunit beta-2 (Rattus norvegicus) (UniProt P62483)	NADPH fluorescence slope	-3.8e-05
Cc1cc(C)n(Cc2nc3ccccc3n2C)n1	Voltage-gated potassium channel subunit beta-2 (Rattus norvegicus) (UniProt P62483)	NADPH fluorescence slope	-3.2e-05
CC(=O)Nc1ccc(S(=O)(=O)N(CC(=O)O)Cc2ccccc2)cc1	Voltage-gated potassium channel subunit beta-2 (Rattus norvegicus) (UniProt P62483)	NADPH fluorescence slope	-4.6e-05
Cn1c(=O)c2c(nc(NCCCO)n2Cc2cccc(Br)c2)n(C)c1=O	Voltage-gated potassium channel subunit beta-2 (Rattus norvegicus) (UniProt P62483)	NADPH fluorescence slope	-4.6e-05
CC1=C(C(N)=O)C(c2ccccn2)n2nc(-c3ccccc3Cl)nc2N1 (stereo unspecified)	Voltage-gated potassium channel subunit beta-2 (Rattus norvegicus) (UniProt P62483)	NADPH fluorescence slope	-3.1e-05

Consider the compound O=C(NCC(=O)N(CCc1ccccc1)C(C(=O)NC1CCCC1)c1cccnc1)c1ccco1 (stereo unspecified) and give its measured NADPH fluorescence slope.
1.4e-05

Request the reported NADPH fluorescence slope associated with CCCCC(NC(C)=O)c1nc2ccccc2n1CCC (stereo unspecified)
-2.6e-05

// returns reported NADPH fluorescence slope for input `CCOCCn1cnc2sc(C(=O)Nc3nc(C)c(C(=O)OCC)s3)c(C)c2c1=O`
4.1e-06

Requested field: NADPH fluorescence slope. Item: `COc1ccc(S(=O)(=O)Nc2ccc(Cl)cn2)c(C)c1C`
-4.6e-05

Report NADPH fluorescence slope for `Cc1cc(C)c(OCC(=O)Nc2cccc(O)c2)cc1C` please.
-8.2e-06

* * *

# EXPERIMENTAL_PROTOCOL: reduction of polyQ htt aggregates in cells – imaging, exon1htt(103Q)mCFP cells, high-content imaging, primary screen (AID 483);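 note: compound exposure lasted 3 days before fixation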
# STATED_CONDITIONS: exon1htt(103Q)mCFP cell line, aggregate imaging, at 2 µM; active compounds read high
QUANTITY: inhibition of aggregation (%)
All answers are understood in %, so give the number only.

Consider the following illustrative entries.
MOLECULE	inhibition of aggregation (%)
CCCCSc1nc2c(cnn2-c2ccc(Cl)cc2)c(=O)[nH]1	6.5
Cc1nn(-c2ccccc2)c2c1C(c1c(C)[nH]c(C#N)c1C)C(C#N)=C(N)O2 (stereo unspecified)	9.2
Cc1ccc(S(=O)(=O)C2(C(=O)NC3CCCC3)CC2)cc1	-10.8
c1ccc(-c2noc(-c3cccnc3)n2)nc1	0.3
CCOC(=O)c1[nH]c(C)c(C(=O)N2CCN(c3ccc(F)cc3)CC2)c1C	-27

Which inhibition of aggregation reading was recorded for the molecule `CC(=O)c1ccc(Oc2cc(C)nc(-n3nc(C)cc3C)n2)cc1` ?
-50.7

Request the reported inhibition of aggregation associated with `Cn1c(-c2ccc(F)cc2)cnc1NCc1ccccc1`
21

Data request, read-out inhibition of aggregation, for `COC(=O)c1ccc(CSc2nc3ccccc3s2)o1`
-4

So what does the record say about inhibition of aggregation for `CC(C)(C)C(=O)Cn1c(=N)n(Cc2ccccc2)c2ccccc21` ?
8.9

What does the data say about its inhibition of aggregation? Entry: `C=Cn1c(N2CCOCC2)nc2c1c(=O)[nH]c(=O)n2C`
-2.7

Fill blank: measured inhibition of aggregation of the molecule `CC(=O)Nc1ccc(S(=O)(=O)N2CCN(C(=O)CCC3CCCC3)CC2)cc1` is ____.
-12.8

Entry source: PubChem BioAssay
